Measured % Inhibition (Mean ± SD), listed per entry.
# System: UGT2B
# MEASUREMENT NOTES: Measurement of the inhibition of UGT2B activity in vitro (metabolism of nalbuphine in liver microsome, HPLC)
# CONDITION LABEL: Table 6, enhancer 8.5 μM; negative = enhancement

GIVEN SMILES	TEST TARGET	MEASUREMENT UNIT	% Inhibition (Mean ± SD)
O=c1cc(-c2ccc(O)c(O)c2)oc2cc(O)c([C@@H]3O[C@H](CO)[C@@H](O)[C@H](O)[C@H]3O)c(O)c12	UGT2B	%	−128.53
C[C@@H]1O[C@@H](OC[C@H]2O[C@@H](Oc3c(-c4ccc(O)c(O)c4)oc4cc(O)cc(O)c4c3=O)[C@H](O)[C@@H](O)[C@@H]2O)[C@H](O)[C@H](O)[C@H]1O	UGT2B	%	−19.854
COc1ccc([C@@H]2CC(=O)c3c(O)cc(O[C@@H]4O[C@H](CO)[C@@H](O)[C@H](O)[C@H]4O[C@@H]4O[C@@H](C)[C@H](O)[C@@H](O)[C@H]4O)cc3O2)cc1O	UGT2B	%	−66.586
O=c1c(O[C@@H]2O[C@H](CO)[C@@H](O)[C@H](O)[C@H]2O)c(-c2ccc(O)c(O)c2)oc2cc(O)cc(O)c12	UGT2B	%	−8.089

---

# MEASUREMENT NOTES: in vivo
# CONDITION LABEL: male, Sprague-Dawley, rat, serum, po, 100 mg/kg
PROPERTY LABEL: CL/F (L/h/kg)

> print(dat)
                               given.smiles  property.label  measurement.unit  result.value
1  Oc1ccc2c3c1O[C@H]1[C@@H](O)CC[C@@]4(O)[C@@H](C2)N(CC2CCC2)CC[C@]314            CL/F            L/h/kg           350

---

# MEASUREMENT NOTES: in vivo
# CONDITION LABEL: male, Sprague-Dawley, rat, serum, po, 100 mg/kg
PROPERTY LABEL: half-life (h)

> print(dat)
                               given.smiles  result.value
1  Oc1ccc2c3c1O[C@H]1[C@@H](O)CC[C@@]4(O)[C@@H](C2)N(CC2CCC2)CC[C@]314          5.53

---

# Test system: UGT2B
# MEASUREMENT NOTES: Measurement of the inhibition of UGT2B activity in vitro (metabolism of nalbuphine in liver microsome, HPLC)
# CONDITION LABEL: male, Sprague-Dawley, rat, liver microsomes, probe nalbuphine, % Inhibition (Mean ± SD), Table 6, enhancer 850 μM; negative = enhancement
# inhibition at 60 min, 850 μM listing for each entry below
PROPERTY LABEL: inhibition at 60 min, 850 μM (%)

COMPOUND	RESULT VALUE
CC(C)[C@@H](C)/C=C/[C@@H](C)[C@H]1CC[C@H]2C3=CC=C4C[C@@H](O)CC[C@]4(C)[C@H]3CC[C@]12C [ergosterol, Ergosterol]	-34.6
CC1(C)CC[C@]2(C(=O)O)CC[C@]3(C)C(=CC[C@@H]4[C@@]5(C)CC[C@H](O)C(C)(C)[C@@H]5CC[C@]43C)[C@@H]2C1 [oleanolic acid, Oleanolic Acid]	-129

The reported numbers originate from patent US9415034B2.
